All figures here come from ChEMBL document CHEMBL1138633.

Target: UniProt Q09128
Sequence (Q09128 whole entry): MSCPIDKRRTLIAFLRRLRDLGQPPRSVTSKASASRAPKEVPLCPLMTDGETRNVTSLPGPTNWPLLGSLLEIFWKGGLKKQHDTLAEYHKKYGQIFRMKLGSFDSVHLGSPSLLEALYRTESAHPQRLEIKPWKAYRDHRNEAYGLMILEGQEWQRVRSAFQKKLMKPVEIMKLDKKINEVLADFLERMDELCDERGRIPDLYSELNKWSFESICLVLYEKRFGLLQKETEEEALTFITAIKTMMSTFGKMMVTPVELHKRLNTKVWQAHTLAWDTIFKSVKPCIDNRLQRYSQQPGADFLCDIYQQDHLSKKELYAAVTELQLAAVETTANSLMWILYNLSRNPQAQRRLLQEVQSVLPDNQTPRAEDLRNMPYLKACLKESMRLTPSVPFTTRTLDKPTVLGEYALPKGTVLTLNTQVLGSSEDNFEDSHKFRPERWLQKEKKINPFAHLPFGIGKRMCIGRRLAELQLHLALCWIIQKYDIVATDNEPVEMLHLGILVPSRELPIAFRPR
assay.readout: IC50 (µM)

Previously resolved entries follow.
INSERT INTO assay_data (compound, measured_result) VALUES
  ('COc1ccc2c(c1)CCC(Cc1cc(C(F)(F)F)ccc1C(F)(F)F)C2=O (stereo not drawn)', 4.5),
  ('O=C1c2ccc(O)cc2CCC1Cc1ccc(O)cc1 (stereo not drawn)', 8.9),
  ('COc1ccc2c(c1)CCC(Cc1ccc(O)cc1)C2 (stereo not drawn)', 2.6),
  ('CN(C)c1ccc(CC2CCc3cc(O)ccc3C2=O)cc1 (stereo not drawn)', 18),
  ('COc1ccc2c(c1)CC/C(=C\c1ccccc1Br)C2=O', 100),
  ('COc1ccc2c(c1)CCC(Cc1ccc(O)cc1)C2=O (stereo not drawn)', 3.5),
  ('CC(=O)N1CCN(c2ccc(OC[C@H]3CO[C@](Cn4ccnc4)(c4ccc(Cl)cc4Cl)O3)cc2)CC1', 20);

(a) O=C1c2ccc(O)cc2CCC1Cc1ccccc1-c1ccccc1 (stereo not drawn)
(b) COc1ccc2c(c1)CCC(Cc1ccccc1C)C2=O (stereo not drawn)
input: I'm curious whether a or b has the smaller IC50 number. Which is it? Select an item and report its label.
output: b
(b: 0.9 µM, a: 2.1 µM)

----------
Target: 1,25-dihydroxyvitamin D(3) 24-hydroxylase, mitochondrial (Rattus norvegicus, UniProt Q09128)
Sequence (Q09128 whole entry): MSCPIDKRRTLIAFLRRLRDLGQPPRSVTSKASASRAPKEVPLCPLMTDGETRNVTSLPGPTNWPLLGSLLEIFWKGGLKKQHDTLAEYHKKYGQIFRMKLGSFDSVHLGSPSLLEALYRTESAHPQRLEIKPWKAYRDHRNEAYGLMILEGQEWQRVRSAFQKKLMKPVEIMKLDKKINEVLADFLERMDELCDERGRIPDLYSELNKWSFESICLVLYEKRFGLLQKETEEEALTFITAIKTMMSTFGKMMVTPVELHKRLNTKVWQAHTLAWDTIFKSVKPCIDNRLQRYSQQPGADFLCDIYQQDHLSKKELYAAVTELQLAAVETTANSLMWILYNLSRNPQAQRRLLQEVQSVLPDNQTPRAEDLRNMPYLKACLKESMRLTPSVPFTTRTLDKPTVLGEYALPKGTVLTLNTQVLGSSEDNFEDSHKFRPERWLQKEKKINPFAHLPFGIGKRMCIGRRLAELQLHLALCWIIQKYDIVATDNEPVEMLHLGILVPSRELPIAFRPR
assay.readout: IC50

INSERT INTO assay_data (molecule, measured_result) VALUES
  ('COc1ccc2c(c1)CC/C(=C\c1ccc(O)cc1)C2=O', '> 20 µM'),
  ('COc1ccc2c(c1)CC/C(=C\c1cc(C(F)(F)F)ccc1C(F)(F)F)C2=O', '> 100 µM'),
  ('O=C1/C(=C/c2ccc(-c3ccccc3)cc2)CCc2cc(O)ccc21', '> 100 µM'),
  ('COc1ccc2c(c1)CC/C(=C\c1cccc(N(C)C)c1)C2=O', '> 100 µM'),
  ('O=C1/C(=C/c2ccccc2-c2ccccc2)CCc2cc(O)ccc21', '> 100 µM'),
  ('COc1ccc2c(c1)CC/C(=C\c1ccccc1C)C2=O', '> 20 µM');

input: I am curious: what IC50 value has been reported for O=C1c2ccc(O)cc2CCC1Cc1ccc(-c2ccccc2)cc1 (centres undefined) ?
output: > 20 µM

input: IC50 for O=C1/C(=C/c2ccc(O)cc2)CCc2cc(O)ccc21 ?
output: > 20 µM

input: Please report the recorded IC50 for CN(C)c1ccc(/C=C2\CCc3cc(O)ccc3C2=O)cc1 .
output: > 100 µM
